STUDY_TARGET: ULK1 (Homo sapiens, UniProt O75385)
Sequence (O75385 whole entry, species assumed): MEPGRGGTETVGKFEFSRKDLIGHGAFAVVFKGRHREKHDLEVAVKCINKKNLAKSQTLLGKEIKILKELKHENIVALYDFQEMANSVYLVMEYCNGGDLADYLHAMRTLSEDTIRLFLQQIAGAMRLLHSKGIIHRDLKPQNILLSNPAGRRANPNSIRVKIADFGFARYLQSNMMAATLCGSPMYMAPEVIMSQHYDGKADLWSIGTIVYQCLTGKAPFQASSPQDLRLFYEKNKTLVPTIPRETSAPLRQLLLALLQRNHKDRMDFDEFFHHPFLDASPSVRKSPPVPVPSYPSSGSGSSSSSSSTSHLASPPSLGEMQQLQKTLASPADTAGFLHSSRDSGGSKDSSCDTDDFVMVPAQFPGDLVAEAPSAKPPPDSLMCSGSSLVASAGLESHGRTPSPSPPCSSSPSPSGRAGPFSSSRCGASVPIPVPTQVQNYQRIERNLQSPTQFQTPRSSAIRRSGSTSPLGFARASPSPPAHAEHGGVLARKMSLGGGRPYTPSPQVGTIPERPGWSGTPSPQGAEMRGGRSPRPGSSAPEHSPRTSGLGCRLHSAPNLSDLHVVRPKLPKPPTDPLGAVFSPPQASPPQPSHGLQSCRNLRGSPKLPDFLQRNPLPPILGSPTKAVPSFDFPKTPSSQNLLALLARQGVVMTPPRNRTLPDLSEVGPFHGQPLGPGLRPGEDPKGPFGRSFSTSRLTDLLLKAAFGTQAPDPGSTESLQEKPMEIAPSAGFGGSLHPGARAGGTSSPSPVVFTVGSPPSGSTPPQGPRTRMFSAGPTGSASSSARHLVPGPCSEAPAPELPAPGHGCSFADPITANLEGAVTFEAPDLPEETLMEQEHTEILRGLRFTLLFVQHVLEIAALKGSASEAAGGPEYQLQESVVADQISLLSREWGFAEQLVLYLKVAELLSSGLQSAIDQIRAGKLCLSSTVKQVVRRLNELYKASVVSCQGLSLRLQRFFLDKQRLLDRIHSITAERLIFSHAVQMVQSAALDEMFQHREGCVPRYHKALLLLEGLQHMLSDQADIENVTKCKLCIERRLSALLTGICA
PROCEDURE_SUMMARY: ULK1 inhibition assay
Format: biochemical
MEASUREMENT_PARAMETERS: * = tested as a mixture of regioisomers
pIC50: −log10 of the molar value.

[
  {
    "COMPOUND": "CNC(=O)c1ccccc1Oc1nc(Nc2cc(OC)c(OC)c(OC)c2)ncc1Cl [Compound 234a]",
    "pIC50": "< 5.70"
  },
  {
    "COMPOUND": "CN(c1ccccc1)c1ncc(C(F)(F)F)c(Nc2ccc3c(c2)CCC(=O)N3)n1 [Compound 184b]",
    "pIC50": "> 6.70"
  },
  {
    "COMPOUND": "COc1ccc(C)c(Nc2ncc(Br)c(Nc3ccc(OC)nc3)n2)c1",
    "pIC50": "< 5.70"
  },
  {
    "COMPOUND": "O=C1CCc2cc(Nc3ncc(C(F)(F)F)c(NC4Cc5ccccc5C4)n3)ccc2N1 [Compound 130a]",
    "pIC50": "> 6.70"
  },
  {
    "COMPOUND": "O=C1CCc2cc(Nc3nc(NC4CCC4)ncc3C(F)(F)F)ccc2N1 [Compound 150b]",
    "pIC50": "> 6.70"
  },
  {
    "COMPOUND": "OCc1ccccc1Nc1nc(Nc2cc(F)c(F)c(F)c2)ncc1Br",
    "pIC50": "< 5.70"
  },
  {
    "COMPOUND": "O=[N+]([O-])c1cnc(NC2CC2)nc1NC1CC1 [Compound 291b]",
    "pIC50": "< 5.70"
  },
  {
    "COMPOUND": "FC(F)(F)c1cnc(Nc2ccc3c(c2)CCC3)nc1Nc1ccc2c(c1)OCO2",
    "pIC50": "> 6.70"
  },
  {
    "COMPOUND": "FC(F)(F)c1cnc(NC2CC2)nc1Nc1ccc2c(c1)OCCO2 [Compound 158b]",
    "pIC50": "> 6.70"
  },
  {
    "COMPOUND": "Fc1c(Nc2nc(Nc3ccc4c(c3)OCO4)ncc2C(F)(F)F)cccc1C(F)(F)F [Compound 141b]",
    "pIC50": "> 6.70"
  },
  {
    "COMPOUND": "O=C1CCc2cc(Nc3ncc(C(F)(F)F)c(SCc4ccccc4)n3)ccc2N1",
    "pIC50": "> 6.70"
  },
  {
    "COMPOUND": "CNC(=O)c1ccccc1Nc1nc(Nc2ccc(N3CCOCC3)cc2OC)ncc1C(F)(F)F",
    "pIC50": "> 6.70"
  }
]

---

pIC50: −log10 of the molar value.
// ULK1 (Homo sapiens) pIC50 records

[
  {
    "MOLECULE": "FC(F)(F)c1cnc(Nc2ccc3c(c2)OCO3)nc1N1CCC1 [Compound 166b]",
    "STUDY_TARGET": "ULK1 (Homo sapiens)",
    "pIC50": "> 6.70"
  },
  {
    "MOLECULE": "O=c1[nH]c2ccc(Nc3nccc(NC4CC4)n3)cc2[nH]1",
    "STUDY_TARGET": "ULK1 (Homo sapiens)",
    "pIC50": "< 5.70"
  },
  {
    "MOLECULE": "O=C1CCc2cc(Nc3ncc(C(F)(F)F)c(NCCO)n3)ccc2N1",
    "STUDY_TARGET": "ULK1 (Homo sapiens)",
    "pIC50": "> 6.70"
  },
  {
    "MOLECULE": "COc1ccc(C)c(Nc2ncc(Cl)c(Nc3nccc(C)n3)n2)c1",
    "STUDY_TARGET": "ULK1 (Homo sapiens)",
    "pIC50": "< 5.70"
  },
  {
    "MOLECULE": "COc1cccc(Nc2ncc(C(F)(F)F)c(O)n2)c1OC [Compound 115b]",
    "STUDY_TARGET": "ULK1 (Homo sapiens)",
    "pIC50": "< 5.70"
  },
  {
    "MOLECULE": "CCONc1nc(Nc2ccc3c(c2)CCC(=O)N3)ncc1C(F)(F)F",
    "STUDY_TARGET": "ULK1 (Homo sapiens)",
    "pIC50": "< 5.70"
  },
  {
    "MOLECULE": "O=C1CCc2cc(Nc3ncc(C(F)(F)F)c(Oc4ccccc4)n3)ccc2N1 [Compound 300a]",
    "STUDY_TARGET": "ULK1 (Homo sapiens)",
    "pIC50": "< 5.70"
  },
  {
    "MOLECULE": "COc1ccc(Nc2ncc(C(F)(F)F)c(Nc3ccc4c(c3)OCO4)n2)cc1",
    "STUDY_TARGET": "ULK1 (Homo sapiens)",
    "pIC50": "> 6.70"
  },
  {
    "MOLECULE": "COc1cc(Nc2ncc(Br)c(Oc3ccccc3[S+](C)[O-])n2)cc(OC)c1OC (centres unmarked)",
    "STUDY_TARGET": "ULK1 (Homo sapiens)",
    "pIC50": "< 5.70"
  },
  {
    "MOLECULE": "COc1ccc(Nc2ncc(C(F)(F)F)c(NC3CC3)n2)cc1OC",
    "STUDY_TARGET": "ULK1 (Homo sapiens)",
    "pIC50": "> 6.70"
  },
  {
    "MOLECULE": "CNC(=O)c1ccccc1Nc1nc(Nc2ccc3c(c2)OCO3)ncc1Cl",
    "STUDY_TARGET": "ULK1 (Homo sapiens)",
    "pIC50": "> 6.70"
  },
  {
    "MOLECULE": "CNC(=O)c1ccccc1Nc1nc(Nc2ccc3c(c2)CCC(=O)N3)ncc1Br",
    "STUDY_TARGET": "ULK1 (Homo sapiens)",
    "pIC50": "> 6.70"
  },
  {
    "MOLECULE": "COc1cccc(Nc2nc(Nc3ccc4c(c3)OCCO4)ncc2C(F)(F)F)c1",
    "STUDY_TARGET": "ULK1 (Homo sapiens)",
    "pIC50": "> 6.70"
  },
  {
    "MOLECULE": "FC(F)(F)c1cnc(Nc2ccc3ncoc3c2)nc1NC1CC1 [Compound 208a]",
    "STUDY_TARGET": "ULK1 (Homo sapiens)",
    "pIC50": "> 6.70"
  },
  {
    "MOLECULE": "O=c1[nH][nH]c(=O)c2cc(Nc3ncc(C(F)(F)F)c(NC4CC4)n3)ccc12",
    "STUDY_TARGET": "ULK1 (Homo sapiens)",
    "pIC50": "> 6.70"
  },
  {
    "MOLECULE": "CNC(=O)c1ccccc1Oc1nc(Nc2ccccc2SC)ncc1C(F)(F)F [Compound 116a]",
    "STUDY_TARGET": "ULK1 (Homo sapiens)",
    "pIC50": "< 5.70"
  },
  {
    "MOLECULE": "FC(F)(F)c1cnc(Nc2ccon2)nc1NC1CC1 [Compound 214a]",
    "STUDY_TARGET": "ULK1 (Homo sapiens)",
    "pIC50": "5.70 to 6.70"
  }
]
